These data points were gathered from patent US9968606B2.

- measurement description: Monkey pharmacokinetic study on deuteration of indole N-methyl group
- Format: in vivo
- condition set: cynomolgus monkey, blood; male cynomolgus monkeys, single oral administration, 20 mg/Kg; read-out: AUC(0-t) of the parent
measured property: AUC(0-t) (ng·h/mL)
API: value field is a number in ng·h/mL; no unit string.

Query: Given the entry C=CC(=O)Nc1cc(Nc2nccc(-c3cn(C)c4ccccc34)n2)c(OC)cc1N(C)CCN(C)C , report its measured AUC(0-t).
Result: 654
